The reader will find reported EC50 (nM), IFNγ induction, NK-92 cells values listed item by item below.
# System under test: T1, IL-18 receptor (IL-18Rαβ) on cells (UniProt Q13478 19-541; O95256 20-599, limits assumed)
# T1 sequence (looked up) 1: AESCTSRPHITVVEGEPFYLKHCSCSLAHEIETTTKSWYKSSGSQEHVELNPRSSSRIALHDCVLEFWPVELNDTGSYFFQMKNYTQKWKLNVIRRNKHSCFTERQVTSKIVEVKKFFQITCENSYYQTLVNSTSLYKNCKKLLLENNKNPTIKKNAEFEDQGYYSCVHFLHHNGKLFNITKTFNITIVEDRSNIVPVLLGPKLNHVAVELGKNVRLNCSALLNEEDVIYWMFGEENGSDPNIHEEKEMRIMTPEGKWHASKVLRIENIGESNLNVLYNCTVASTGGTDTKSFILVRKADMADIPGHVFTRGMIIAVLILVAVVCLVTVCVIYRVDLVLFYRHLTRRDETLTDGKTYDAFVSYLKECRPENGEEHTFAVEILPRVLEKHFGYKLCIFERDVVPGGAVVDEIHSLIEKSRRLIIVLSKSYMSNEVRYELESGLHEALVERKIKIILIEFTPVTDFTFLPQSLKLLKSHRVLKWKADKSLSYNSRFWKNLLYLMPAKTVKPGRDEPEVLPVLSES
# T1 sequence (looked up) 2: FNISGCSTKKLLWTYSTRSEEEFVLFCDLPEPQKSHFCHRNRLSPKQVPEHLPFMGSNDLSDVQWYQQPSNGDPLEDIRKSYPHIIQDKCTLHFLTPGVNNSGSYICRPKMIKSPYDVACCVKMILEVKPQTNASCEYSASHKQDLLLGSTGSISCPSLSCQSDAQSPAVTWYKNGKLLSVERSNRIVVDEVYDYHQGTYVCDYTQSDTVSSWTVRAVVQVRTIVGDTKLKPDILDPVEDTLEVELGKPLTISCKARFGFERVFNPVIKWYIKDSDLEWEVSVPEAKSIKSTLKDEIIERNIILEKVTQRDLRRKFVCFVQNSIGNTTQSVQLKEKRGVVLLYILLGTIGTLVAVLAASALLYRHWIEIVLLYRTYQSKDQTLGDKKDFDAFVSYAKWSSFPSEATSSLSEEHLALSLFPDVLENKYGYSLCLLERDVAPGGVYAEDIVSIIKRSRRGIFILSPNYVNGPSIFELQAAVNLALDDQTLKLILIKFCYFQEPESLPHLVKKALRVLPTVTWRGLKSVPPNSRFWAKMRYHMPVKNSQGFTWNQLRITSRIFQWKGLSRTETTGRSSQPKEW
# Protocol description: cell-based or functional assay
# unit: nM | format: bare number

Consider the reported EC50 (nM), IFNγ induction, NK-92 cells for these binders:
1. C148 (F2A, V11I, C38A, K53A, C76A, C127A) (ligand) YAGKLESKLSIIRNLNDQVLFIDQGNRPLFEDMTDSDARDNAPRTIFIISMYADSQPRGMAVTISVKCEKISTLSAENKIISFKEMNPPDNIKDTKSDIIFFQRSVPGHDNKMQFESSSYEGYFLAAEKERDLFKLILKKEDELGDRSIMFTVQNED    0.187
2. IL-18 polypeptide SEQ ID NO: 5 (E6K, V11I, C38A, K53A, T63A, C68A, C76A, M86C, C127A) (ligand) YFGKLKSKLSIIRNLNDQVLFIDQGNRPLFEDMTDSDARDNAPRTIFIISMYADSQPRGMAVAISVKAEKISTLSAENKIISFKECNPPDNIKDTKSDIIFFQRSVPGHDNKMQFESSSYEGYFLAAEKERDLFKLILKKEDELGDRSIMFTVQNED    0.075
3. C164 (V11I, C38A, S55H, C76A, C127A) (ligand) YFGKLESKLSIIRNLNDQVLFIDQGNRPLFEDMTDSDARDNAPRTIFIISMYKDHQPRGMAVTISVKCEKISTLSAENKIISFKEMNPPDNIKDTKSDIIFFQRSVPGHDNKMQFESSSYEGYFLAAEKERDLFKLILKKEDELGDRSIMFTVQNED    0.176

Quote EC50 (nM), IFNγ induction, NK-92 cells reported for C162 (K8E, V11I, C38A, C76A, Q103R, C127A) (ligand) YFGKLESELSIIRNLNDQVLFIDQGNRPLFEDMTDSDARDNAPRTIFIISMYKDSQPRGMAVTISVKCEKISTLSAENKIISFKEMNPPDNIKDTKSDIIFFRRSVPGHDNKMQFESSSYEGYFLAAEKERDLFKLILKKEDELGDRSIMFTVQNED please. 0.093

// Input: C154 (V11I, E31A, D37A, C38A, K53A, C76A, C127A) (ligand) YFGKLESKLSIIRNLNDQVLFIDQGNRPLFADMTDSAARDNAPRTIFIISMYADSQPRGMAVTISVKCEKISTLSAENKIISFKEMNPPDNIKDTKSDIIFFQRSVPGHDNKMQFESSSYEGYFLAAEKERDLFKLILKKEDELGDRSIMFTVQNED . Output its EC50 (nM), IFNγ induction, NK-92 cells only. 0.067

Note down EC50 (nM), IFNγ induction, NK-92 cells recorded for C156 (V11I, C38A, N41A, K53A, C76A, C127A) (ligand) YFGKLESKLSIIRNLNDQVLFIDQGNRPLFEDMTDSDARDAAPRTIFIISMYADSQPRGMAVTISVKCEKISTLSAENKIISFKEMNPPDNIKDTKSDIIFFQRSVPGHDNKMQFESSSYEGYFLAAEKERDLFKLILKKEDELGDRSIMFTVQNED 0.056

Look up and state reported EC50 (nM), IFNγ induction, NK-92 cells for IL-18 polypeptide SEQ ID NO: 9 (E6K, C38A, K53A, C68A, D98C) (ligand) YFGKLKSKLSVIRNLNDQVLFIDQGNRPLFEDMTDSDARDNAPRTIFIISMYADSQPRGMAVTISVKAEKISTLSCENKIISFKEMNPPDNIKDTKSCIIFFQRSVPGHDNKMQFESSSYEGYFLACEKERDLFKLILKKEDELGDRSIMFTVQNED 0.069

Tell me its EC50 (nM), IFNγ induction, NK-92 cells given C147 (V11I, C38A, K53A, D54A, C76A, C127A) (ligand) YFGKLESKLSIIRNLNDQVLFIDQGNRPLFEDMTDSDARDNAPRTIFIISMYAASQPRGMAVTISVKCEKISTLSAENKIISFKEMNPPDNIKDTKSDIIFFQRSVPGHDNKMQFESSSYEGYFLAAEKERDLFKLILKKEDELGDRSIMFTVQNED as the entry. 0.256

Supply reported EC50 (nM), IFNγ induction, NK-92 cells belonging to this binder: IL-18 polypeptide SEQ ID NO: 4 (E6K, C38A, K53A, C68A, M86C) (ligand) YFGKLKSKLSVIRNLNDQVLFIDQGNRPLFEDMTDSDARDNAPRTIFIISMYADSQPRGMAVTISVKAEKISTLSCENKIISFKECNPPDNIKDTKSDIIFFQRSVPGHDNKMQFESSSYEGYFLACEKERDLFKLILKKEDELGDRSIMFTVQNED 0.022

Write down EC50 (nM), IFNγ induction, NK-92 cells measured for item IL-18 polypeptide SEQ ID NO: 46 (E06K, K53A, S55A, M51G) (ligand) YFGKLKSKLSVIRNLNDQVLFIDQGNRPLFEDMTDSDCRDNAPRTIFIISGYADAQPRGMAVTISVKCEKISTLSCENKIISFKEMNPPDNIKDTKSDIIFFQRSVPGHDNKMQFESSSYEGYFLACEKERDLFKLILKKEDELGDRSIMFTVQNED 7.4

Look up and state reported EC50 (nM), IFNγ induction, NK-92 cells for IL-18 polypeptide SEQ ID NO: 34 (E06K, K53A, S55A) (ligand) YFGKLKSKLSVIRNLNDQVLFIDQGNRPLFEDMTDSDCRDNAPRTIFIISMYADAQPRGMAVTISVKCEKISTLSCENKIISFKEMNPPDNIKDTKSDIIFFQRSVPGHDNKMQFESSSYEGYFLACEKERDLFKLILKKEDELGDRSIMFTVQNED 0.824
